Where do the numbers come from? From patent US20240117038A1.

Molecular target: T1, human CX3CR1 (human, UniProt P49238 1-355)
T1 construct: Overexpressed on CHO K1, Ba/F3 or HEK293T cells; also called huCX3CR1; hCX3CR1
T1 sequence: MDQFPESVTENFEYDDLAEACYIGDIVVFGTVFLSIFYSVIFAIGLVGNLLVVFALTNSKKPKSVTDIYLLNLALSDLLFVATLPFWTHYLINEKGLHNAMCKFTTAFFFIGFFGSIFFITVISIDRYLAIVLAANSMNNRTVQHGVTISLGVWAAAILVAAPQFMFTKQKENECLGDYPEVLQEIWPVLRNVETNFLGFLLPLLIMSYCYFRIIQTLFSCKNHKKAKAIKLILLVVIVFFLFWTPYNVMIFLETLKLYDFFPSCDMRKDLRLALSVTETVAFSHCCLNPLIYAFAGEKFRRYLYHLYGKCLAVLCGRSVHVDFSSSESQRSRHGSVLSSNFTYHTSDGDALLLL
Assay: flow cytometry on CHO K1 huCX3CR1 cells, 30 uM HSA
Measured top, listed per entry for reference.

BINDER	top
A041600035 (VHH, Trivalent ISVD construct (two anti-CX3CR1 ISVDs, one anti-albumin ISVD), C-terminal alanine included in the entry; also called 54A12_SO (E1D)-9GS-54A12_SO-9GS-ALB23002-A) DVQLVESGGGSVQPGGSLRLSCAASGSIFSSTAMAWYRQAPGKQRDLVAVISTVGITKYADSVKGRFTISRDNAKNTVYLQMNSLRPEDTALYYCTSDARRGWDTRYWGQGTLVTVSSGGGGSGGGSEVQLVESGGGSVQPGGSLRLSCAASGSIFSSTAMAWYRQAPGKQRDLVAVISTVGITKYADSVKGRFTISRDNAKNTVYLQMNSLRPEDTALYYCTSDARRGWDTRYWGQGTLVTVSSGGGGSGGGSEVQLVESGGGVVQPGGSLRLSCAASGFTFRSFGMSWVRQAPGKGPEWVSSISGSGSDTLYADSVKGRFTISRDNSKNTLYLQMNSLRPEDTALYYCTIGGSLSRSSQGTLVTVSSA	50900
A041600031 (VHH, Trivalent ISVD construct (two anti-CX3CR1 ISVDs, one anti-albumin ISVD), C-terminal alanine included in the entry; also called 66B02_SO (E1D)-9GS-ALB23002-9GS-54A12_SO-A) DVQLVESGGGSVQPGGSLRLSCAASGSIFSSTAMAWYRQAPGKRRDLVAAINTVGVTKYADSVKGRFTISRDNAKNTVYLQMNSLRPEDTALYYCTSDPRRGWDTRYWGQGTLVTVSSGGGGSGGGSEVQLVESGGGVVQPGGSLRLSCAASGFTFRSFGMSWVRQAPGKGPEWVSSISGSGSDTLYADSVKGRFTISRDNSKNTLYLQMNSLRPEDTALYYCTIGGSLSRSSQGTLVTVSSGGGGSGGGSEVQLVESGGGSVQPGGSLRLSCAASGSIFSSTAMAWYRQAPGKQRDLVAVISTVGITKYADSVKGRFTISRDNAKNTVYLQMNSLRPEDTALYYCTSDARRGWDTRYWGQGTLVTVSSA	31300
A041600085 (VHH, also called 307-9GS-ALB23002-9GS-307 (D1E)-A) DVQLVESGGGLVQPGGSLRLSCAASGSIFSSTAMAWYRQAPGKRRDLVAAISTVGVTKYADSVKGRFTISRDNSKNTVYLQMNSLRPEDTAVYYCTSDPRRGWDTRYWGQGTLVTVSSGGGGSGGGSEVQLVESGGGVVQPGGSLRLSCAASGFTFRSFGMSWVRQAPGKGPEWVSSISGSGSDTLYADSVKGRFTISRDNSKNTLYLQMNSLRPEDTALYYCTIGGSLSRSSQGTLVTVSSGGGGSGGGSEVQLVESGGGLVQPGGSLRLSCAASGSIFSSTAMAWYRQAPGKRRDLVAAISTVGVTKYADSVKGRFTISRDNSKNTVYLQMNSLRPEDTAVYYCTSDPRRGWDTRYWGQGTLVTVSSA	14600
A041600011 (VHH, Trivalent ISVD construct (two anti-CX3CR1 ISVDs, one anti-albumin ISVD), C-terminal alanine included in the entry; also called 66B02_SO (E1D)-9GS-66B02_SO-9GS-ALB23002-A) DVQLVESGGGSVQPGGSLRLSCAASGSIFSSTAMAWYRQAPGKRRDLVAAINTVGVTKYADSVKGRFTISRDNAKNTVYLQMNSLRPEDTALYYCTSDPRRGWDTRYWGQGTLVTVSSGGGGSGGGSEVQLVESGGGSVQPGGSLRLSCAASGSIFSSTAMAWYRQAPGKRRDLVAAINTVGVTKYADSVKGRFTISRDNAKNTVYLQMNSLRPEDTALYYCTSDPRRGWDTRYWGQGTLVTVSSGGGGSGGGSEVQLVESGGGVVQPGGSLRLSCAASGFTFRSFGMSWVRQAPGKGPEWVSSISGSGSDTLYADSVKGRFTISRDNSKNTLYLQMNSLRPEDTALYYCTIGGSLSRSSQGTLVTVSSA	44200
A041600025 (VHH, Trivalent ISVD construct (two anti-CX3CR1 ISVDs, one anti-albumin ISVD), C-terminal alanine included in the entry; also called 54A12_SO (E1D)-9GS-ALB23002-9GS-54A12_SO-A) DVQLVESGGGSVQPGGSLRLSCAASGSIFSSTAMAWYRQAPGKQRDLVAVISTVGITKYADSVKGRFTISRDNAKNTVYLQMNSLRPEDTALYYCTSDARRGWDTRYWGQGTLVTVSSGGGGSGGGSEVQLVESGGGVVQPGGSLRLSCAASGFTFRSFGMSWVRQAPGKGPEWVSSISGSGSDTLYADSVKGRFTISRDNSKNTLYLQMNSLRPEDTALYYCTIGGSLSRSSQGTLVTVSSGGGGSGGGSEVQLVESGGGSVQPGGSLRLSCAASGSIFSSTAMAWYRQAPGKQRDLVAVISTVGITKYADSVKGRFTISRDNAKNTVYLQMNSLRPEDTALYYCTSDARRGWDTRYWGQGTLVTVSSA	28700
A041600026 (VHH, Trivalent ISVD construct; also called 66B02_SO (E1D)-20GS-ALB23002-20GS-66B02_SO-A) DVQLVESGGGSVQPGGSLRLSCAASGSIFSSTAMAWYRQAPGKRRDLVAAINTVGVTKYADSVKGRFTISRDNAKNTVYLQMNSLRPEDTALYYCTSDPRRGWDTRYWGQGTLVTVSSGGGGSGGGGSGGGGSGGGGSEVQLVESGGGVVQPGGSLRLSCAASGFTFRSFGMSWVRQAPGKGPEWVSSISGSGSDTLYADSVKGRFTISRDNSKNTLYLQMNSLRPEDTALYYCTIGGSLSRSSQGTLVTVSSGGGGSGGGGSGGGGSGGGGSEVQLVESGGGSVQPGGSLRLSCAASGSIFSSTAMAWYRQAPGKRRDLVAAINTVGVTKYADSVKGRFTISRDNAKNTVYLQMNSLRPEDTALYYCTSDPRRGWDTRYWGQGTLVTVSSA	35600
